# % inhibition of SMAD7 mRNA expression per record follows
Tested on: murine Smad7 mRNA
Test: Dose-dependent inhibition of murine Smad7 mRNA in bEND cells, electroporation (Example 5, Study 2)
Type: cell-based, mouse
Conditions: 0.74 μM, electroporation, approximately 16 hours
Reply numerically in %, unit not repeated.

For orientation, consider the following solved cases.
{"columns": ["SUBSTANCE", "UNIT", "% inhibition of SMAD7 mRNA expression"],
 "data": [
  ["830025 (antisense TTTGTAAATCGAAAGC; 3-10-3 cEt gapmer, further chemistry not given here) [compound 830025]", "%", 27],
  ["736697 (antisense GTCGCCCCTTCTCCCCGCAGC; chemistry not fully specified) [compound 736697]", "%", 1]
]}

Now for the substance whose % inhibition of SMAD7 mRNA expression we want.
Provide the documented % inhibition of SMAD7 mRNA expression with murine Smad7 mRNA as the system for 790615 (CCAATGAGAATGCTTC; 3-10-3 cEt gapmer, further chemistry not given here) [compound 790615]
18

---

System: human peripheral blood mononuclear cells (PBMCs)
Experiment: Human PBMC activation assay, cytokine levels (IL-10, IL-6, MCP-1, TNF-α) in supernatant after 24 hours (Example 9)
Conditions: human PBMC supernatant after 24 hours; 40 μM oligonucleotide
MEASURED PROPERTY: Levels of IL-6 (pg/mL)
Reply numerically in pg/mL, unit not repeated.

{"columns": ["SUBSTANCE", "STUDY SYSTEM", "Levels of IL-6, pg/mL"],
 "data": [
  ["830037 (antisense CTATTGGCTGATCTGG; 3-10-3 cEt gapmer, further chemistry not given here) [compound 830037]", "human peripheral blood mononuclear cells (PBMCs)", 58.7],
  ["830121 (AGAATCAAGCCCTGGC; 3-10-3 cEt gapmer, further chemistry not given here) [compound 830121]", "human peripheral blood mononuclear cells (PBMCs)", 14.3],
  ["798781 (CGTAAGATTCACAGCA; 3-10-3 cEt gapmer, further chemistry not given here) [compound 798781]", "human peripheral blood mononuclear cells (PBMCs)", 20.7],
  ["790615 (CCAATGAGAATGCTTC; 3-10-3 cEt gapmer, further chemistry not given here) [compound 790615]", "human peripheral blood mononuclear cells (PBMCs)", 11.0],
  ["829994 (GGAGGCAGGGCCGCGA; 3-10-3 cEt gapmer, further chemistry not given here) [compound 829994]", "human peripheral blood mononuclear cells (PBMCs)", 66.1]
]}

Provide the documented Levels of IL-6 with human peripheral blood mononuclear cells (PBMCs) as the system for 830025 (antisense TTTGTAAATCGAAAGC; 3-10-3 cEt gapmer, further chemistry not given here) [compound 830025]
19.5

Provide the documented Levels of IL-6 with human peripheral blood mononuclear cells (PBMCs) as the system for 736697 (antisense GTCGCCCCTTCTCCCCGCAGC; chemistry not fully specified) [compound 736697]
63.3

---

Test system: human SMAD7 mRNA
Test: Antisense inhibition of human SMAD7 mRNA expression in Hep3B cells by 3-10-3 cEt gapmers, 10,000 nM, electroporation (Example 2)
Format: cell-based
Settings: Hep3B cells, electroporation with 10,000 nM antisense oligonucleotide, approximately 24 hours, SMAD7 mRNA by RT-PCR (RTS5062), relative to untreated control cells
Strand notation (5' to 3'): a small letter for the sugar, then the base; units joined by * are phosphorothioate-linked, units joined directly phosphodiester-linked; [ ] holds rarer units or linkages, { } end groups; capitals alone tell only the bases. k = constrained ethyl (cEt); [5mC] = 5-methylcytosine; d = 2'-deoxy (DNA)
# % Inhibition per record follows
Reply numerically in %, unit not repeated.

Item 798737 (antisense k[5mC]*kA*kG*dA*dT*d[5mC]*d[5mC]*dG*d[5mC]*d[5mC]*dT*d[5mC]*dG*kG*k[5mC]*kG) [compound 798737] has what recorded % Inhibition?
2

Item 800104 (antisense kA*kG*kG*dA*d[5mC]*dG*dA*dG*dA*d[5mC]*dA*dG*dA*kA*kA*kG) [compound 800104] has what recorded % Inhibition?
17

---

# Levels of IL-6 per record follows
System: human peripheral blood mononuclear cells (PBMCs)
Assay: Human PBMC activation assay, cytokine levels (IL-10, IL-6, MCP-1, TNF-α) in supernatant after 24 hours (Example 9)
Conditions: human PBMC supernatant after 24 hours; 0.064 μM oligonucleotide
Reply numerically in pg/mL, unit not repeated.

{"columns": ["SUBSTANCE", "MEASURED PROPERTY", "ASSAY VALUE"],
 "data": [
  ["736697 (antisense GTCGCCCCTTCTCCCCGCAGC; chemistry not fully specified) [compound 736697]", "Levels of IL-6", 5.3],
  ["830121 (AGAATCAAGCCCTGGC; 3-10-3 cEt gapmer, further chemistry not given here) [compound 830121]", "Levels of IL-6", 4.9],
  ["798781 (CGTAAGATTCACAGCA; 3-10-3 cEt gapmer, further chemistry not given here) [compound 798781]", "Levels of IL-6", 4.9],
  ["830037 (antisense CTATTGGCTGATCTGG; 3-10-3 cEt gapmer, further chemistry not given here) [compound 830037]", "Levels of IL-6", 9.8],
  ["790615 (CCAATGAGAATGCTTC; 3-10-3 cEt gapmer, further chemistry not given here) [compound 790615]", "Levels of IL-6", 3.8]
]}

Item 830025 (antisense TTTGTAAATCGAAAGC; 3-10-3 cEt gapmer, further chemistry not given here) [compound 830025] has what recorded Levels of IL-6?
3.8

Item 829994 (GGAGGCAGGGCCGCGA; 3-10-3 cEt gapmer, further chemistry not given here) [compound 829994] has what recorded Levels of IL-6?
3.8

---

System: human SMAD7 mRNA
Test: Dose-dependent inhibition of human SMAD7 mRNA expression in Hep3B cells (Example 3, Study 1 and 2)
Assay type: cell-based
Details: 2220 nM, electroporation, approximately 16 hours, Study 2
Experimental: The antisense oligonucleotides were tested in a series of experiments that had similar culture conditions as described below. Cells were plated at a density of 20,000 cells per well and transfected using electroporation with 0.31 μM, 1.25 μM, 5.00 μM, or 20.00 μM concentrations of antisense oligonucleotide, as specified in the Tables below. […] After a treatment period of approximately 16 hours, RNA was isolated from the cells and SMAD7 mRNA levels were measured by quantitative real-time PCR. […]
Strand notation (5' to 3'): a small letter for the sugar, then the base; units joined by * are phosphorothioate-linked, units joined directly phosphodiester-linked; [ ] holds rarer units or linkages, { } end groups; capitals alone tell only the bases. k = constrained ethyl (cEt); [5mC] = 5-methylcytosine; d = 2'-deoxy (DNA)
MEASURED PROPERTY: % inhibition of SMAD7 mRNA expression (%)
Reply numerically in %, unit not repeated.

{"columns": ["SUBSTANCE", "UNIT", "ASSAY VALUE"],
 "data": [
  ["799321 (antisense kA*kT*k[5mC]*dT*dG*dG*dA*d[5mC]*dA*dG*dT*d[5mC]*dT*kG*k[5mC]*kT) [compound 799321]", "%", 5],
  ["799322 (antisense kG*kG*kA*dG*dG*dG*dT*dA*dT*dG*d[5mC]*dA*d[5mC]*kA*k[5mC]*kT) [compound 799322]", "%", 90],
  ["799511 (antisense kT*kA*kA*dT*dG*dA*d[5mC]*dA*dA*dT*dT*d[5mC]*d[5mC]*kA*kG*k[5mC]) [compound 799511]", "%", 0],
  ["830097 (k[5mC]*k[5mC]*kA*dT*d[5mC]*dT*dA*dA*d[5mC]*dA*dA*d[5mC]*dA*kT*k[5mC]*k[5mC]; antisense) [compound 830097]", "%", 60]
]}

Item 799364 (kT*k[5mC]*k[5mC]*dG*dA*dG*dT*dT*dA*dT*d[5mC]*d[5mC]*d[5mC]*k[5mC]*kA*kT; antisense) [compound 799364] has what recorded % inhibition of SMAD7 mRNA expression?
54

Item 790666 (kT*kA*kA*dT*dT*dT*dA*dT*dG*dA*d[5mC]*dA*dA*k[5mC]*kG*k[5mC]; antisense) [compound 790666] has what recorded % inhibition of SMAD7 mRNA expression?
49

---

Tested on: dog SMAD7 mRNA
Assay: Pharmacology: dog SMAD7 mRNA expression in liver, kidney, duodenum, ileum and colon after subcutaneous administration in beagle dogs (Example 8)
Assay type: in vivo
Conditions: 30 mg/kg subcutaneous, necropsy, duodenum, normalized to HPRT1
# % inhibition of SMAD7 mRNA expression (compared to control), Duodenum per record follows
Reply numerically in %, unit not repeated.

For orientation, consider the following solved cases.
{"columns": ["SUBSTANCE", "ASSAY VALUE"],
 "data": [
  ["830121 (AGAATCAAGCCCTGGC; 3-10-3 cEt gapmer, further chemistry not given here) [compound 830121]", 55],
  ["798781 (CGTAAGATTCACAGCA; 3-10-3 cEt gapmer, further chemistry not given here) [compound 798781]", 0]
]}

Now for the substance whose % inhibition of SMAD7 mRNA expression (compared to control), Duodenum we want.
Item 830037 (antisense CTATTGGCTGATCTGG; 3-10-3 cEt gapmer, further chemistry not given here) [compound 830037] has what recorded % inhibition of SMAD7 mRNA expression (compared to control), Duodenum?
33
